Where do these numbers come from? They come from PubChem BioAssay (NCI).

system: KM20L2 colon; assay: NCI tumour cell line growth inhibition, 48 h
metric: TGI

[[record]]
molecule = "CC/C(=N/O)C(C)C(=O)CCC(=O)Nc1ccc(Cl)cc1 (stereo unspecified)"
test_result = "> 100 µM"

[[record]]
molecule = "CC(C)(C)[Si](C)(C)O/N=C\\c1cccc(O[Si](C)(C)C(C)(C)C)c1"
test_result = "38.8 µM"

[[record]]
molecule = "CC(C(=O)c1ccc(O)cc1)C1(O)C(=O)Nc2c(Cl)cc(Cl)cc21 (stereo unspecified)"
test_result = "> 100 µM"

[[record]]
molecule = "N#CC(C(=S)Nc1ccccc1)=C1Nc2ccccc2N1"
test_result = "> 10 µM"

[[record]]
molecule = "CC(C)CCCC(C)[C@H]1CCC2C3CC=C4C[C@@H](OC(=O)CC(CC(=O)[O-])C(=O)[O-])CC[C@]4(C)C3CC[C@@]21C.N.N.[Pt+4] (stereo partly specified)"
test_result = "> 100 µM"

[[record]]
molecule = "CN(C)C(=S)/N=C(\\N)N(C)C"
test_result = "> 100 µM"

[[record]]
molecule = "NC(=S)N/N=C1/C(=O)N(c2ccccc2)C(=O)C1C(=O)Nc1ccccc1 (stereo unspecified)"
test_result = "> 100 µM"

[[record]]
molecule = "O=C(CC(=O)c1cccc2ccccc12)C(=O)Nc1nccs1"
test_result = "> 100 µM"

[[record]]
molecule = "CC1=C(C(=O)NCc2ccccc2)C(c2ccc(N(C)C)cc2)C(C(=O)NCc2ccccc2)=C(C)N1"
test_result = "> 100 µM"

[[record]]
molecule = "CNC(=O)NCCCCC(NC(=O)OCc1ccccc1)C(=O)OCc1ccccc1 (stereo unspecified)"
test_result = "> 100 µM"

[[record]]
molecule = "COc1cc2c(cc1OC)C(Cc1cc(Br)c(OC)c(OC)c1)=[N+](C)CC2"
test_result = "> 100 µM"

[[record]]
molecule = "N#CCc1ccccc1/C(C#N)=C1/OC(=N)C(c2ccccc2CC#N)C1=O (stereo unspecified)"
test_result = "> 100 µM"

[[record]]
molecule = "CC1(C)OC2C(O1)[C@H]1OC(C(Cl)(Cl)Cl)=N[C@H]1C(I)[C@H]2N1C(=O)c2ccccc2C1=O (stereo partly specified)"
test_result = "> 100 µM"

[[record]]
molecule = "C[C@@]12[Se]c3ccccc3[C@]1(C)[Se]c1ccccc12"
test_result = "> 100 µM"

[[record]]
molecule = "CC(C)C(=O)CC(c1ccc(Br)cc1)N1N=C(C(C)C)CC1c1ccc(Br)cc1 (stereo unspecified)"
test_result = "> 100 µM"

[[record]]
molecule = "COc1ccccc1C(=O)Nc1ccc(Cl)c(C(=O)OC(C)C)c1"
test_result = "> 100 µM"

[[record]]
molecule = "CC[C@H](C)C(=O)O[C@H]1C[C@@H](C)C=C2C=C[C@H](C)[C@H](CC[C@@H]3C[C@@H](O)CC(=O)O3)[C@H]21"
test_result = "> 30 µM"

[[record]]
molecule = "OCC(O)C(OC1OC(CO)C(O)C(O)C1O)c1nn(-c2ccc(Cl)cc2)c2nc3cc(Cl)c(Cl)cc3nc12 (stereo unspecified)"
test_result = "> 100 µM"

[[record]]
molecule = "O[C@]12c3ccccc3C1CCCC2N1CCOCC1 (stereo partly specified)"
test_result = "> 100 µM"

[[record]]
molecule = "O=C(c1nc2ccc(Cl)cc2[nH]c1=O)C(O)c1ccco1 (stereo unspecified)"
test_result = "85.1 µM"

[[record]]
molecule = "CC(C)(C)c1cc(C#N)c2c(c1)C(=O)OC2(c1ccccc1)c1ccccc1C#N (stereo unspecified)"
test_result = "> 100 µM"

